Tested on: ERK5;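 note: kd values determined as follow-up on hits from a single-replicate KINOMEscan panel screen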
Construct: gene MAPK7
VALUE TYPE: Kd

[Q] Given `Cc1ccc(NC(=O)c2cccc(C#N)c2)cc1-c1ccc(C(=O)Nc2ccncc2)cc1` , state its recorded Kd.
[A] > 10 µM

----------
System: MYLK
Conditions: concentration: 1 μM, replicates: in singlicate; n = 1
Below is a list of entries, each paired with its recorded %Inh value.
Kindly answer with a numeric value in %, unit omitted.

molecule="CSc1nn2c(=O)cc(N3CCOCC3)nc2n1Cc1cccc(Cl)c1Cl [GSK2347225]" value_type=%Inh units=% readout_value=12
molecule="COc1ccc(Nc2nccc(N3CCC(NC(=O)c4cccc(NC(C)=O)c4)C3)n2)cc1 (centres unmarked) [GSK1379732]" value_type=%Inh units=% readout_value=29

[Q] Suppose we examine the molecule Nc1nc(-c2ccc3c(N)n[nH]c3c2)cc(N2CCC[C@@H](C(=O)Nc3ccccc3)C2)n1.O=C(O)C(F)(F)F.O=C(O)C(F)(F)F [GSK2288359] ; what %Inh value has been reported?
[A] 27

[Q] For O=C(Nc1n[nH]c2nc(-c3ccco3)c(Br)cc12)c1ccc(CN2CCCC2)cc1.O=C(O)[C@H](O)[C@@H](O)C(=O)O [SB-742352] , what is its reported %Inh?
[A] 83

[Q] So what does the record say about %Inh for Clc1ccc(-c2cc(-c3c[nH]nc3-c3ccccn3)ccn2)cc1 [GW681251] ?
[A] 0

[Q] Please report the recorded %Inh for `Cn1ccc2ncnc(Oc3ccc(NC(=O)Nc4cccnc4)c(Cl)c3)c21` .
[A] 0

[Q] Sample COc1ccc(NC(=O)Nc2ccc(C)c(-c3ccc(C(=O)Nc4ccncc4)cc3)c2)cc1 [GSK1398475] — what was its %Inh?
[A] 0

[Q] So what does the record say about %Inh for FC(F)(F)c1ccc(-c2cc(-c3c[nH]nc3-c3ccccn3)ccn2)cc1 [GW599550] ?
[A] 21

----------
Test system: ERK8
Construct: gene MAPK15
Conditions: concentration: 1 μM, replicates: in singlicate; n = 1
VALUE TYPE: %Inh (%)
Respond with the bare value in %.

Past entries and their recorded results:
molecule=CCc1nc(-c2cccc(C)c2)c(-c2ccnc(NC(=O)c3ccccc3)c2)s1 value_type=%Inh readout_value=0
molecule=CS(=O)(=O)CCNCc1nc(-c2ccc3ncnc(Nc4ccc(OCc5cccc(F)c5)c(Cl)c4)c3c2)cs1.Cl value_type=%Inh readout_value=0
molecule=Nc1nc(-c2cccnc2)c(-c2ccnc3ccccc23)s1 value_type=%Inh readout_value=0

Shift focus to the following entry.
[Q] Look up %Inh: `O=C(Nc1n[nH]c2nc(-c3ccco3)c(Br)cc12)c1ccc(CN2CCCC2)cc1.O=C(O)[C@H](O)[C@@H](O)C(=O)O`
[A] 0

----------
System: AURKA
Conditions: concentration: 1 μM, replicates: in singlicate; n = 1
Each entry below carries its reported %Inh.
Reply with just the number (in %).

compound_string=C[C@@H]1CCN(C(=O)CO)C[C@@H]1N(C)c1ncnc2[nH]ccc12 value_type=%Inh readout_value=0
compound_string=O=C(c1ccc(-c2cc(-c3c[nH]nc3-c3ccccn3)ccn2)cc1)N1CCCC1 value_type=%Inh readout_value=0

With those in mind, consider the next compound.
[Q] Identify the measured %Inh of `NC(=O)c1sc(-n2cnc3ccccc32)cc1OCc1ccccc1F` for AURKA.
[A] 0

----------
Test system: MAP3K4
Details: concentration: 1 μM, replicates: in singlicate; n = 1
VALUE TYPE: %Inh (%)
Field format: number, assumed %, no unit text.

Example cases with answers are listed next.
molecule=C[C@H]1CC[C@@H](C(=O)Nc2ccccc2)CN1c1cc(-c2ccc3c(N)n[nH]c3c2)nc(N)n1 readout_value=5
molecule=COc1ccc(-c2oc3ncnc(N)c3c2-c2ccc(OC)cc2)cc1 readout_value=0
molecule=Cl.O=S(=O)(c1cccc(F)c1)c1ccc(Nc2ncnc3cc(Br)sc23)cc1Cl readout_value=9

[Q] May I ask what %Inh has been recorded for `CNc1nccc(-c2c(-c3ccc(F)cc3)ncn2CCCN2CCOCC2)n1` ?
[A] 17

[Q] Param item = `COc1cc2c(Nc3cccc(NC(=O)c4ccccc4)c3)ncnc2cc1OCCCN1CCOCC1` ; retrieve measured %Inh.
[A] 18

[Q] What value of %Inh has been reported for the following molecule? COc1ccc(Nc2nccc(N3CCC(NC(=O)Nc4ccc5c(c4)OCO5)C3)n2)cc1 (centres unmarked)
[A] 15

[Q] What value of measured %Inh is listed for O=C(Nc1ccccc1F)NC1CCN(c2ccnc(Nc3ccc(F)cc3)n2)C1 (centres unmarked) ?
[A] 14

[Q] Could you tell me which %Inh is on file for COc1ccc(Nc2nccc(N3CCC(NC(=O)c4cccc(NC(C)=O)c4)C3)n2)cc1 (centres unmarked) ?
[A] 0

[Q] What measured %Inh goes with `COC(=O)c1cccc(NC(=O)NCCNc2ccnc(Nc3ccc(F)cc3)n2)c1` ?
[A] 0

[Q] Value lookup for %Inh; key = `FC(F)(F)c1ccc(-c2nn3ncccc3c2-c2ccnc(Nc3cccc(C(F)(F)F)c3)n2)cc1`
[A] 8

[Q] Given the molecule `Fc1cccc(COc2ccc(Nc3ncnc4sc(-c5ccc[nH]5)cc34)cc2Cl)c1` , what is its reported %Inh?
[A] 11

[Q] Report %Inh for `Nc1nccc2scc(-c3ccc4c(c3)CCN4C(=O)Cc3cc(F)ccc3F)c12` please.
[A] 10

[Q] What value of %Inh has been recorded for this entry: `O=c1cc(N2CCOCC2)nc2n(Cc3cccc(Cl)c3)ccn12`
[A] 4

----------
Test system: AAK1
Details: concentration: 1 μM, replicates: in singlicate; n = 1
VALUE TYPE: %Inh (%)
Please give a number only; it is taken to be in %.

molecule=Fc1ccc(-c2ncn(CCCNCc3ccccc3)c2-c2ccncc2)cc1 value_type=%Inh units=% readout_value=16
molecule="COc1ccc(Nc2nccc(N3CCC(NC(=O)Nc4ccc5c(c4)OCO5)C3)n2)cc1 (stereo not drawn)" value_type=%Inh units=% readout_value=3
molecule=COc1ccc(NC(=O)Nc2ccc(C)c(-c3ccc(C(=O)Nc4ccncc4)cc3)c2)cc1 value_type=%Inh units=% readout_value=2
molecule=C[C@@H]1CCN(C(=O)CO)C[C@@H]1N(C)c1ncnc2[nH]ccc12 value_type=%Inh units=% readout_value=8
molecule=CCC(CC)(CC)n1cnc2c(N)ncnc21 value_type=%Inh units=% readout_value=0

[Q] Report %Inh for `Fc1ccc(Nc2nccc(-c3c(-c4ccc(Cl)cc4)nn4ncccc34)n2)cc1F` please.
[A] 0

[Q] Any idea what its %Inh is? The molecule is `N#Cc1ccc(Oc2ccc(Nc3ncnc4cc[nH]c34)cc2Cl)cc1`
[A] 14

[Q] Requested field: %Inh. Item: `Fc1cccc(COc2ccc(Nc3ncnc4nn5ccccc5c34)cc2Cl)c1`
[A] 0

[Q] I am curious: what %Inh value has been reported for `Clc1cccc(-c2nc(Nc3ccncc3)c3ccccc3n2)c1` ?
[A] 0

----------
Quick reference: %Inh of the listed items.
System: BRK
Construct: gene PTK6
Details: concentration: 1 μM, replicates: in singlicate; n = 1
Just the number please, in %, no unit attached.

compound_string=Clc1cccc(-c2nc(Nc3ccncc3)c3ccccc3n2)c1 measured_target=BRK value_type=%Inh readout_value=24
compound_string=CC(=O)Nc1n[nH]c2ncc(-c3ccccc3)cc12 measured_target=BRK value_type=%Inh readout_value=0

Turning to the following molecule.
[Q] Any idea what its %Inh is? The molecule is `COC(=O)c1cccc(NC(=O)NCCNc2ccnc(Nc3ccc(F)cc3)n2)c1`
[A] 24

----------
Test system: PRKCD
Conditions: concentration: 1 μM, replicates: in singlicate; n = 1
VALUE TYPE: %Inh (%)
Only the number, expressed in %, is required.

// worked examples, %Inh included
molecule=CNc1nccc(-c2c(-c3ccc(F)cc3)ncn2CCCN2CCOCC2)n1 measured_target=PRKCD value_type=%Inh units=% readout_value=1
molecule=Fc1cccc(COc2ccc(Nc3ncnc4sc(-c5ccc[nH]5)cc34)cc2Cl)c1 measured_target=PRKCD value_type=%Inh units=% readout_value=0
molecule="O=C(Nc1ccccc1F)NC1CCN(c2ccnc(Nc3ccc(F)cc3)n2)C1 (centres unmarked)" measured_target=PRKCD value_type=%Inh units=% readout_value=0
molecule=COC(=O)c1cccc(NC(=O)NCCNc2ccnc(Nc3ccc(F)cc3)n2)c1 measured_target=PRKCD value_type=%Inh units=% readout_value=0
molecule="CCCc1ccc(S(=O)(=O)NC2CCN(c3ccnc(Nc4ccc(OC)cc4)n3)C2)cc1 (centres unmarked)" measured_target=PRKCD value_type=%Inh units=% readout_value=0

[Q] Report %Inh for `Fc1cccc(COc2ccc(Nc3ncnc4nn5ccccc5c34)cc2Cl)c1` please.
[A] 0

[Q] # get_value(readout='%Inh', item= `COc1ccc(NC(=O)Nc2ccc(C)c(-c3ccc(C(=O)Nc4ccncc4)cc3)c2)cc1` )
[A] 0

[Q] Recorded %Inh of `CCc1nc(-c2cccc(C)c2)c(-c2ccnc(NC(=O)c3ccccc3)c2)s1` , please.
[A] 20
